# system.tested: Coagulation factor VIII (Homo sapiens, UniProt P00451)
# Sequence (P00451 20-759 limits assumed): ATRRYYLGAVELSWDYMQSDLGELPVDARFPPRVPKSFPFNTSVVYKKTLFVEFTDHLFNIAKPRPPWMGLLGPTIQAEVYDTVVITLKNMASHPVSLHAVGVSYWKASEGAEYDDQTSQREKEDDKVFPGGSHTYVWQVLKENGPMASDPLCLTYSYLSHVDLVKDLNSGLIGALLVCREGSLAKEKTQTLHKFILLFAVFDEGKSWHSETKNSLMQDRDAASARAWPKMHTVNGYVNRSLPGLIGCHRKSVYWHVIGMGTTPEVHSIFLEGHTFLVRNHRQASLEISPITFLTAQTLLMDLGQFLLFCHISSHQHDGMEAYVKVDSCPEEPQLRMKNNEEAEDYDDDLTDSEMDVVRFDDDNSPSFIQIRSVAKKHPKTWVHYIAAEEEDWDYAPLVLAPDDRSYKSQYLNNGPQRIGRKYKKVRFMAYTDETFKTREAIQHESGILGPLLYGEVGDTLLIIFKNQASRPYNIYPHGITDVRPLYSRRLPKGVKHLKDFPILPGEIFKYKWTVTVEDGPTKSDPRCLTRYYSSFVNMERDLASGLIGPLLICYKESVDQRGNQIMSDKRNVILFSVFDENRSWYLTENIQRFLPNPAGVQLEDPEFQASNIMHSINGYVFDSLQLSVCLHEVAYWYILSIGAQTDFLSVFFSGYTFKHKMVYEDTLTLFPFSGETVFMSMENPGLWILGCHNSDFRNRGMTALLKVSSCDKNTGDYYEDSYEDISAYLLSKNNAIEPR
# Sequence (P00451 1668-2351 limits assumed): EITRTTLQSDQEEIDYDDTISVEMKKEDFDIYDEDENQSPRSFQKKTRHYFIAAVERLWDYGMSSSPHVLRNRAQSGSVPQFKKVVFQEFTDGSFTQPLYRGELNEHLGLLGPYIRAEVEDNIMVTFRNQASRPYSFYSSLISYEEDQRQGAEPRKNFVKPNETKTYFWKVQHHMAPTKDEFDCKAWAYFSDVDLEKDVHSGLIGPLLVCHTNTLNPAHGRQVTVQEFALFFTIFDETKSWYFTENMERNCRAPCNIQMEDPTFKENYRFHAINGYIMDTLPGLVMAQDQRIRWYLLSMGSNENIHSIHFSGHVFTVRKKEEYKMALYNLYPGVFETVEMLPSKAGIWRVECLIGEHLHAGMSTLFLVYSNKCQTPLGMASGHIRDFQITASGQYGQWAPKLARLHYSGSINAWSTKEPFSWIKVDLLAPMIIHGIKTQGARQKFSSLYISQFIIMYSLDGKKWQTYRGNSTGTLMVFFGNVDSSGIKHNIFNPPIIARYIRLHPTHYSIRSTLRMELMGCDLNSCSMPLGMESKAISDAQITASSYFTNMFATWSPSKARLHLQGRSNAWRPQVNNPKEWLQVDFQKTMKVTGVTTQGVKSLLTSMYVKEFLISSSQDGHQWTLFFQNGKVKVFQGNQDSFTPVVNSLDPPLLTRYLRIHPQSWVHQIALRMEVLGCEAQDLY
# assay: Inhibition Assay
# assay.context: 37 °C
Response field label: string, one of y (IC50 strictly below 10 µM) or n.

Some solved entries appear below for comparison.
- molecule: "CC(C=Cc1ccco1)=NCCCCNC(=O)C=Cc1ccco1 [5247489]"
  qualitative.label: "n"
- molecule: "N=C(NN=Cc1ccc(F)cc1)NN=Cc1ccc(F)cc1 [5924029]"
  qualitative.label: "n"
- molecule: "O=C1/C(=C\\c2ccc(Sc3ccc(Cl)cc3)o2)SC(=S)N1c1ccc([N+](=O)[O-])cc1 [6789536]"
  qualitative.label: "y"

Regarding O=C1NC(=S)NC(=O)C1=Cc1ccc(-c2ccc(Cl)c(C(=O)O)c2)o1 [8048422] , kindly confirm whether its IC50 is beneath 10 µM.
y

Further, for O=C1/C(=C/c2ccc(I)o2)SC(=S)N1c1cccc(C(F)(F)F)c1 [5738875] ?
y

Further, for O=C1/C(=C/c2ccc(Br)o2)SC(=S)N1c1cccc(C(F)(F)F)c1 [5737176] ?
y

Further, for COc1cc(/C=C2/SC(=S)N(CC(=O)Nc3ccccn3)C2=O)cc(OC)c1OC [6126765] ?
n

Further, for O=C1/C(=C/c2ccc(-c3ccc(Cl)cc3Cl)o2)SC(=S)N1c1cccc(C(F)(F)F)c1 [8047577] ?
y
